- Tested on: VIM-2 metallo-beta-lactamase (Pseudomonas aeruginosa)
- assayMethodText: inhibition of VIM-2 nitrocefin hydrolysis – biochemical, epi-absorbance readout, Pseudomonas aeruginosa enzyme, primary screen (AID 1527);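 also: red hydrolysis product quenches plate fluorescence so inhibitors raise well fluorescence; 0% = enzyme with DMSO and 100% = DMSO without enzyme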
- studyConditions: purified VIM-2, nitrocefin hydrolysis, epi-absorbance fluorescence; at 5.6 µM; active compounds read high
Among all 290,000 compounds or so, about 2,600 (0.9%) were called active. What follows is part of a selection rich in actives, with near analogues and random picks from the rest.
propertyName: inhibition (%)
Give just the number in %; leave the unit off.

Problem: Can you look up the measured inhibition of CCC(C(=O)NC1CCCCC1)N(C(=O)c1snc(C(N)=O)c1N)c1ccc(OC)cc1OC (stereo not drawn) for me?
Solution: -1.99

Problem: Can you look up the measured inhibition of O=C(NCCCN1CCOCC1)c1ccccc1NS(=O)(=O)c1ccc(F)cc1 for me?
Solution: -1.71

Problem: Can you look up the measured inhibition of O=S(=O)(c1ccc(Br)cc1)N1CCC(c2nc3ccccc3[nH]2)CC1 for me?
Solution: -4.39

Problem: Can you look up the measured inhibition of COCCCC1CCN(C(=O)C2CCC(=O)N(C3CCCCCC3)C2)CC1 (stereo not drawn) for me?
Solution: -3.17

Problem: Can you look up the measured inhibition of COCCNc1ccc(-c2n[nH]c(=O)c3ccccc23)cc1[N+](=O)[O-] for me?
Solution: 10.5

Problem: Can you look up the measured inhibition of COCCNC(=O)c1ccccc1NS(=O)(=O)c1ccc(C)c([N+](=O)[O-])c1 for me?
Solution: 0.45

Problem: Can you look up the measured inhibition of COc1ccc(COC(=O)c2ccc(Cl)c(S(=O)(=O)N3CCOCC3)c2)cc1F for me?
Solution: -3.64

Problem: Can you look up the measured inhibition of Cc1ccc2c(=O)cc(C(=O)NCCc3ccc(S(N)(=O)=O)cc3)oc2c1C for me?
Solution: 5.69

Problem: Can you look up the measured inhibition of Cn1c(=O)c2c(nc(N3CCOCC3)n2CCNC2=NCCC2)n(C)c1=O for me?
Solution: 16

Problem: Can you look up the measured inhibition of Cc1cccc(NC(=O)C2CCCN(C(=O)NCc3ccccc3)C2)c1C (stereo not drawn) for me?
Solution: 0.69

Problem: Can you look up the measured inhibition of CCN(CC)CCNc1ccc(Cl)cc1[N+](=O)[O-] for me?
Solution: 0.16

Problem: Can you look up the measured inhibition of Cc1cccc(OCC(=O)NCC(=O)N/N=C/c2ccc(N(C)C)cc2)c1 for me?
Solution: 0.77

Problem: Can you look up the measured inhibition of COc1ccc(S(=O)(=O)NC(C)C(=O)NCc2ccncc2)cc1Cl (stereo not drawn) for me?
Solution: -2.14

Problem: Can you look up the measured inhibition of COc1cc(OC)c(NS(=O)(=O)c2cn(C)cn2)cc1Cl for me?
Solution: -2.52

Problem: Can you look up the measured inhibition of C=CCn1c(-c2ccc3[nH]c(C)c(C)c3c2)n[nH]c1=S for me?
Solution: 5.39

Problem: Can you look up the measured inhibition of Cc1ccn2c(c1)nc(=O)c1cc(S(=O)(=O)N3CCC(C)CC3)ccc12 for me?
Solution: 3.01

Problem: Can you look up the measured inhibition of O=C(Oc1c(-c2ccco2)oc2ccccc2c1=O)c1cccnc1 for me?
Solution: 0.08

Problem: Can you look up the measured inhibition of Cc1ccc(N/N=C2\COC(C)(C)CC2=O)cc1 for me?
Solution: -2.64
